Below is a list of entries, each paired with its recorded koff value.
Molecular target: T1, recombinant C-terminally truncated RSV (A2 strain) F protein (RSV (A2 strain), UniProt P03420 26-524)
T1 construct: extracellular domain; also called truncated F protein; extracellular domain of the F protein from RSV A2
T1 sequence (P03420 26-109, chain 1 of 2): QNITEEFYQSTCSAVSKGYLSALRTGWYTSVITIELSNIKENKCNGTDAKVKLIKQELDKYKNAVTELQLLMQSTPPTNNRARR
T1 sequence (P03420 137-524, chain 2 of 2): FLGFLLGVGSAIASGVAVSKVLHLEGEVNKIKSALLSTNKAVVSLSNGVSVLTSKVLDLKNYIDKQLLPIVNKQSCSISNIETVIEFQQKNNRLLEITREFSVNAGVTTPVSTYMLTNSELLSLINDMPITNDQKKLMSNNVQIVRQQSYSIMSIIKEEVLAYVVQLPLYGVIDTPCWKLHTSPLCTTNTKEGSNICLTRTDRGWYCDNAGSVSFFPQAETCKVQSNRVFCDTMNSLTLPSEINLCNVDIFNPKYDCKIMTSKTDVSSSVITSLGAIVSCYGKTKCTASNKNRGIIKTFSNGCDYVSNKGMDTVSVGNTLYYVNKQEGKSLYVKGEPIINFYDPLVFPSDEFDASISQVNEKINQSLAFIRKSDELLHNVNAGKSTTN
Test: SPR (BIAcore), Fab over immobilised F
# value in s⁻¹; strip the unit string

[[record]]
binder = "A17b5 Fab (Fab, V domains shown) VH: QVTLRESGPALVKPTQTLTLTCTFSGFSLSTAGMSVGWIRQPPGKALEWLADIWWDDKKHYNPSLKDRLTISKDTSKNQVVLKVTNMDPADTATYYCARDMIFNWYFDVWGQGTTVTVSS VL: DIQMTQSPSTLSASVGDRVTITCSLSSRVGYMHWYQQKPGKAPKLLIYDTYYLPSGVPSRFSGSGSGTEFTLTISSLQPDDFATYYCFQGSGYPFTFGGGTKVEIK"
readout_number = "7.3e-05"

[[record]]
binder = "A13a11 Fab (Fab, V domains shown) VH: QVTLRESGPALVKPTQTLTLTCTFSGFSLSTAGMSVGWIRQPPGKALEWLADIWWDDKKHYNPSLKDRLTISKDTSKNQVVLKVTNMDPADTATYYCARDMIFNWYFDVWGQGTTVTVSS VL: DIQMTQSPSTLSASVGDRVTITCSPSSRVGYMHWYQQKPGKAPKLLIYDTYRHSSGVPSRFSGSGSGTEFTLTISSLQPDDFATYYCFQGSGYPFTFGGGTKVEIK"
readout_number = 0.000229


Could you now consider this next binder?
State the recorded koff for this entry: A14a4 Fab (Fab, V domains shown) VH: QVTLRESGPALVKPTQTLTLTCTFSGFSLSTAGMSVGWIRQPPGKALEWLADIWWDDKKSYNPSLKDRLTISKDTSKNQVVLKVTNMDPADTATYYCARDMITNWYFDVWGQGTTVTVSS VL: DIQMTQSPSTLSASVGDRVTITCLLSSRVGYMHWYQQKPGKAPKLLIYDTYYQTSGVPSRFSGSGSGTEFTLTISSLQPDDFATYYCFQGSGYPFTFGGGTKVEIK
0.00024
